- tested_target: LmDYRK2 (Leishmania major, UniProt Q4Q405)
- Sequence (Q4Q405 entry or part of it): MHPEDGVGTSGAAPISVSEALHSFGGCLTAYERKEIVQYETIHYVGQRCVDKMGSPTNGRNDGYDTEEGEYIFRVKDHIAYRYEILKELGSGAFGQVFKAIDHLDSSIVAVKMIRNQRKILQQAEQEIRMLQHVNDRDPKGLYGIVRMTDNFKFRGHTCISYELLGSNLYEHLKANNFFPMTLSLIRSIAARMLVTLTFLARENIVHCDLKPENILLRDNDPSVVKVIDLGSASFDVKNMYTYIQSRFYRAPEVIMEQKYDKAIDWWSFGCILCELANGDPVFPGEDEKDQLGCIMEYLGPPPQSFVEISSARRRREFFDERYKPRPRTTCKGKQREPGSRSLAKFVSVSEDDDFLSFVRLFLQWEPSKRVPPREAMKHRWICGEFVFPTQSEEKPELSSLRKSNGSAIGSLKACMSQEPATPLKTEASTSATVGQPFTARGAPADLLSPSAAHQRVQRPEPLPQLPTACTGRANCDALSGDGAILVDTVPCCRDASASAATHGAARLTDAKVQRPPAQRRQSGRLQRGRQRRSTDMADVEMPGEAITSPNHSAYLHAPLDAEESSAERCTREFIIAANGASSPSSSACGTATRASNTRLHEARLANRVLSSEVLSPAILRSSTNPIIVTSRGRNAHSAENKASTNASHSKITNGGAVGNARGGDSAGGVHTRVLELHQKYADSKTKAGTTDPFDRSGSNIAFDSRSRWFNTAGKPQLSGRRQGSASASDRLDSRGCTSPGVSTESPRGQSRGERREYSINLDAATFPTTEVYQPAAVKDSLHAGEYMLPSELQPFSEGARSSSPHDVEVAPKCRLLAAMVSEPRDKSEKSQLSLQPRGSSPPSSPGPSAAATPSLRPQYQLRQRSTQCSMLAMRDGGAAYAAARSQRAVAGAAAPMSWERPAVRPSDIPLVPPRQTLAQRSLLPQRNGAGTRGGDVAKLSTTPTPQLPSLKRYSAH
- assay_text: Protein kinase assay
- Format: biochemical
- assay_conditions: 15 μmol/L ATP; read-out: IC50 LmDYRK2
Each entry below lists one item and its recorded pIC50 value.
// pIC50 is dimensionless: -log10 of concentration (M)

compound	pIC50
NC1=NC(=O)/C(=C2\CCNC(=O)c3[nH]cc(Br)c32)N1 [Spongiacidin B]	5.05

Here's the next entry for you.
Query: So what's the measured pIC50 for this one? O=C1NC(Nc2ccccc2)=N/C1=C\c1ccc2c(c1)OCO2 [Leucettine L41, reference compound]
Reply: 5.54

* * *

- tested_target: CpLAMMER (Cryptosporidium parvum)
- Sequence (A3FQG5 entry or part of it): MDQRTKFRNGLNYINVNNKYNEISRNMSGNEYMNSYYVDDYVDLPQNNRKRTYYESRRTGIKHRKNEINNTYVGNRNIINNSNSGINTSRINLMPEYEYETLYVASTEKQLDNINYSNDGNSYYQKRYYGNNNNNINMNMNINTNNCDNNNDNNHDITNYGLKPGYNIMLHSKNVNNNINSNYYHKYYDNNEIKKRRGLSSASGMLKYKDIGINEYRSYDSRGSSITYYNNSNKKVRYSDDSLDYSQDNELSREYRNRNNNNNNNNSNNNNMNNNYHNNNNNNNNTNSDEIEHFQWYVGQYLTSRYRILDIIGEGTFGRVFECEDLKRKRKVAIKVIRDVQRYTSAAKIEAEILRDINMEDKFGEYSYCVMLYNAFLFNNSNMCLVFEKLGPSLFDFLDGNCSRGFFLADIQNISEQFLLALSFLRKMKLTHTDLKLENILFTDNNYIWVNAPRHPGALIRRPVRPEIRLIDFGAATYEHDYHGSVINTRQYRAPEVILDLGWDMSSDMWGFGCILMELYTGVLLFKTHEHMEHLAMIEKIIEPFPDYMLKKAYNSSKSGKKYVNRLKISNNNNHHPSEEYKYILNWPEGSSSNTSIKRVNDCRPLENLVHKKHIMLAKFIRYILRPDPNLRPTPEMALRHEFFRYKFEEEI
- assay_text: Protein kinase assay
- Format: biochemical
- assay_conditions: 15 μmol/L ATP; read-out: IC50 CpLAMMER
Attribute: IC50
Answer with a number only, understood to be in nM.

Below, 4 compounds whose answers are already recorded.
compound	IC50, nM
COc1cc(/C=C2\N=C(N)NC2=O)ccc1O	170
NC1=N/C(=C\c2ccc(O)c(O)c2)C(=O)N1	200
O=C1NC(Nc2ccccc2)=N/C1=C\c1ccc2c(c1)OCO2 [Leucettine L41, reference compound]	100
NC1=NC(=O)/C(=C2\CCNC(=O)c3[nH]c(Br)cc32)N1 [Hymenialdisine, reference compound]	16

Shifting focus to the compound that follows.
Query: Look at this compound and give its reported IC50. NC1=NC(=O)/C(=C2\CCNC(=O)c3[nH]cc(Br)c32)N1
Reply: 130

* * *

Reported pIC50 for target or system UniProt:E9BC59, by entry.
Sequence (E9BC59 1-745): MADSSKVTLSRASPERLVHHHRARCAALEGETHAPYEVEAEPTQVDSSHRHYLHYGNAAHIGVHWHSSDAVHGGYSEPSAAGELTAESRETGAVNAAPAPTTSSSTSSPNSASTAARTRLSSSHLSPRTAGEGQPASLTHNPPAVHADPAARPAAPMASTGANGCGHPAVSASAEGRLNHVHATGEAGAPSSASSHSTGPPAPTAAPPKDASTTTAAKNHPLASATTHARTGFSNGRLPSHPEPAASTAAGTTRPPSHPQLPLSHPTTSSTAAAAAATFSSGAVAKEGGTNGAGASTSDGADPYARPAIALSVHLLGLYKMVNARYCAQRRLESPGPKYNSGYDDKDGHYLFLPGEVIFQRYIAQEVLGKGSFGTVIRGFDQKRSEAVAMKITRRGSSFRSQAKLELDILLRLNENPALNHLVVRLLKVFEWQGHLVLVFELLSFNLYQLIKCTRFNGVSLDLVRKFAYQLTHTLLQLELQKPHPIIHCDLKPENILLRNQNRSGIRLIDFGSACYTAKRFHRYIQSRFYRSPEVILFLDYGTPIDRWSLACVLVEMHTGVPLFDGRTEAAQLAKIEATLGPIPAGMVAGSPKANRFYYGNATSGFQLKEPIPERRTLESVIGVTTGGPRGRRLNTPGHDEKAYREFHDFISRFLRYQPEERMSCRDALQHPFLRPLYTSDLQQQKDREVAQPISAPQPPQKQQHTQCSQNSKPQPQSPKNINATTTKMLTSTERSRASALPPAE
Keep it numeric: pIC50 is minus log10 of the concentration in mol/L.

compound	tested_target	pIC50
NC1=NC(=O)/C(=C2\CCNC(=O)c3[nH]c(Br)cc32)N1 [Hymenialdisine, reference compound]	UniProt:E9BC59	7.38
CN1C(=O)/C(=C/c2ccc3c(c2)OCO3)N=C1N [Leucettamine B]	UniProt:E9BC59	5.16
O=C1NC(Nc2ccccc2)=N/C1=C\c1ccc2c(c1)OCO2 [Leucettine L41, reference compound]	UniProt:E9BC59	6.09
NC1=NC(=O)/C(=C2\CCNC(=O)c3[nH]cc(Br)c32)N1 [Spongiacidin B]	UniProt:E9BC59	6.30

Could you now consider this next compound?
Query: # get_value(readout='pIC50', item= COc1cc(/C=C2\N=C(N)NC2=O)ccc1O [Polyandrocarpamine A] )
Reply: 5.96

* * *

- tested_target: CK1δ/ε
- assay_text: Protein kinase assay
- Format: biochemical, porcine
- assay_conditions: 15 μmol/L ATP; listed as 12
quantity_kind: pIC50
# reply with the number alone; pIC50 is -log10 of concentration in mol/L

Query: Value lookup for pIC50; key = COc1cc(/C=C2\N=C(N)NC2=O)ccc1O
Reply: 5.30

* * *

- tested_target: PfCLK1 (Plasmodium falciparum, UniProt Q8IL19)
- Sequence (Q8IL19 entry or part of it): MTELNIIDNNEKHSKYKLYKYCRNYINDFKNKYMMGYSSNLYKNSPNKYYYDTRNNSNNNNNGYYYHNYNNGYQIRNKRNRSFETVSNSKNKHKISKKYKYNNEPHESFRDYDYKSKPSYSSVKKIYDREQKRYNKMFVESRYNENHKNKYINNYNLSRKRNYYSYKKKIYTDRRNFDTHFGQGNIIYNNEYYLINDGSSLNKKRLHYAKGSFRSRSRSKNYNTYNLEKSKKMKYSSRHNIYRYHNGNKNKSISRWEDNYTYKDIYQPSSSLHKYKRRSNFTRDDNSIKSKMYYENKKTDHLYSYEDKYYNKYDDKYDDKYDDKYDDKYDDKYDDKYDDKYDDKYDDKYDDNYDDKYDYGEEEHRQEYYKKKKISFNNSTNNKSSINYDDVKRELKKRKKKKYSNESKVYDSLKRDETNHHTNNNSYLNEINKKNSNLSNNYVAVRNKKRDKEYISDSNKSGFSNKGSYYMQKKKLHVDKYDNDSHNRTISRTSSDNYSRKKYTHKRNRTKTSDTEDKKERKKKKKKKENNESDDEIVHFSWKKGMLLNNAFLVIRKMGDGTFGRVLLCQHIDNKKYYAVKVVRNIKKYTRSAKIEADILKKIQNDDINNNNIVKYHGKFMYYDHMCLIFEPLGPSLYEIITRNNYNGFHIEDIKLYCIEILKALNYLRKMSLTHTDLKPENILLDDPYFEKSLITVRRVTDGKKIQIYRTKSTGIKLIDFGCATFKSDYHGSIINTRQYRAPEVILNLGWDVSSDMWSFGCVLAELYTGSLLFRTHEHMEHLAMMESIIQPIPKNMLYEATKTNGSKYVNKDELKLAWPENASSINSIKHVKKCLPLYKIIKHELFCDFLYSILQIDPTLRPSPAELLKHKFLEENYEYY
- assay_text: Protein kinase assay
- Assay type: biochemical
- assay_conditions: 15 μmol/L ATP; read-out: IC50 PfCLK1
quantity_kind: log10(IC50) (log10 of the value in nM)
// do not treat as linear: log10 of IC50, unit nM

Here are 4 molecules together with their reported answers.
molecule	log10(IC50)
NC1=NC(=O)/C(=C2\CCNC(=O)c3[nH]cc(Br)c32)N1	1.93
COc1cc(/C=C2\N=C(N)NC2=O)ccc1O	2.81
O=C1NC(Nc2ccccc2)=N/C1=C\c1ccc2c(c1)OCO2 [Leucettine L41, reference compound]	2.62
NC1=NC(=O)/C(=C2\CCNC(=O)c3[nH]c(Br)cc32)N1 [Hymenialdisine, reference compound]	1.04

Now let's try a different one.
Query: Give the reported log10(IC50) for NC1=N/C(=C\c2ccc(O)c(O)c2)C(=O)N1 (system: PfCLK1 (Plasmodium falciparum, UniProt Q8IL19)).
Reply: 3.49
